biological target: Voltage-dependent L-type calcium channel subunit alpha-1C (CA+/DILSI/RA) (Rattus norvegicus); test: CA+/DILSI/RA Eurofins SafetyScreen44 (BI); details: compound concentration 3 uM, read-out: % Ctrl
Sequence (P22002 whole entry): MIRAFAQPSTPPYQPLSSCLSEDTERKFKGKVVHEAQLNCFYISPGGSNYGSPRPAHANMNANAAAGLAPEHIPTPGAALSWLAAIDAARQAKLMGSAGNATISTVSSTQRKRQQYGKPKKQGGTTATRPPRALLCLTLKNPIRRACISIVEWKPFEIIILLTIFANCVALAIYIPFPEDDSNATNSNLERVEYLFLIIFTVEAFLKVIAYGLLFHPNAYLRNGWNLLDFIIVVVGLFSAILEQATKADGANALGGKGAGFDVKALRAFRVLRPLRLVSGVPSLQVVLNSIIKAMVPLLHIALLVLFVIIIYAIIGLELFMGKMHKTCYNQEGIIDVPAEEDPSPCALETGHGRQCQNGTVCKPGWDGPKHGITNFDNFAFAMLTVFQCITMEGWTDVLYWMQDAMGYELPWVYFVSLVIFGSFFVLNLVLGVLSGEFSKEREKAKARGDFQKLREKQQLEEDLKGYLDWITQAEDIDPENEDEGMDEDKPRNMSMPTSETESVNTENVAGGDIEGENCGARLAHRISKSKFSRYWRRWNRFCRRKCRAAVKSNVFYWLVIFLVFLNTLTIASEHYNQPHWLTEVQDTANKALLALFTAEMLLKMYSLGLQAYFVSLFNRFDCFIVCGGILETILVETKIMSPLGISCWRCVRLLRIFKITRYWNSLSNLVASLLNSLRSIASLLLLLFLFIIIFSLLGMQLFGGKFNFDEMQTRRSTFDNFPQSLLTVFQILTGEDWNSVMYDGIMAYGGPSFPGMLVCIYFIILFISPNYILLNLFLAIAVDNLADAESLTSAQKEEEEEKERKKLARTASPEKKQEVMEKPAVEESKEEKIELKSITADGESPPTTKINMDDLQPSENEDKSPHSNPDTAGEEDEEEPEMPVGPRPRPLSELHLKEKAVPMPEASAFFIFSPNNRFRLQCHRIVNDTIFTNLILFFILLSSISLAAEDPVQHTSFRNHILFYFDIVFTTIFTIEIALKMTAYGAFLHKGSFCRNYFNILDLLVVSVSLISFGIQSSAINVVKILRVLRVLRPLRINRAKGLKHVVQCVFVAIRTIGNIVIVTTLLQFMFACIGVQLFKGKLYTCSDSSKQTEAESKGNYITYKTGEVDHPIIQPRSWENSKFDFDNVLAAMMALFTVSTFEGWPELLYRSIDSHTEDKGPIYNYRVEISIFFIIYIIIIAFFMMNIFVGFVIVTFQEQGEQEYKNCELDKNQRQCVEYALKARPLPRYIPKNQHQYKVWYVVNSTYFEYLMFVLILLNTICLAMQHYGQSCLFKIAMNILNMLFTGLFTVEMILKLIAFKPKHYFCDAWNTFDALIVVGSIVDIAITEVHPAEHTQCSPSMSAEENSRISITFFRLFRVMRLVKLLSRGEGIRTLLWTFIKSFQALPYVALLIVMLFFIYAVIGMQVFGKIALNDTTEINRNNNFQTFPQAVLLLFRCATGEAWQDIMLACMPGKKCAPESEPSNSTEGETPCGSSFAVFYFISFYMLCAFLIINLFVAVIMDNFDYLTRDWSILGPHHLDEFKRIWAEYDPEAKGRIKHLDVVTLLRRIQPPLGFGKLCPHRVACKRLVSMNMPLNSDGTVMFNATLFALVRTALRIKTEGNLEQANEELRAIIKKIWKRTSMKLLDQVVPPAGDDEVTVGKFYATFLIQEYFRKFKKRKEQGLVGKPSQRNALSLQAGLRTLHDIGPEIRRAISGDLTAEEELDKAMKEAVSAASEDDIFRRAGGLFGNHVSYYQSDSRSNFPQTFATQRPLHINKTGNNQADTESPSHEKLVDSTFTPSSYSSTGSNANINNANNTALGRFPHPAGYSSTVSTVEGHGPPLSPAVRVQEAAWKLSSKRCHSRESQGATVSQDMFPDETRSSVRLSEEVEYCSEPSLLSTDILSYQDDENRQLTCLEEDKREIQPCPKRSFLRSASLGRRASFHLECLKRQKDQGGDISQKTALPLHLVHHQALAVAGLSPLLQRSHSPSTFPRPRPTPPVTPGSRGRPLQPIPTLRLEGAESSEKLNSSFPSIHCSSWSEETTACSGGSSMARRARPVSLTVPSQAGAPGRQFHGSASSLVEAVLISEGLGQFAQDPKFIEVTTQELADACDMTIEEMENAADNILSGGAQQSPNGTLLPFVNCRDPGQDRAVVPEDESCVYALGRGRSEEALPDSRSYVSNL
Measurement Label: activity at 3 µM

Data request: Tell me the measured activity at 3 µM of `CCC(F)(F)c1cc(N2CCC(S(C)(=O)=O)CC2)nc2sc(C(N)=O)c(N)c12` , please.
Data returned: 111% (not active)

* * *

biological target: Sodium-dependent dopamine transporter (Homo sapiens, UniProt Q01959); assay: GPCRScan assay: inhibition of DAT; set-up: radioligand conc. used [nm] 3.6 – 16.0, parental cells stable HEK; settings: read-out: Ki
Sequence (Q01959 whole entry): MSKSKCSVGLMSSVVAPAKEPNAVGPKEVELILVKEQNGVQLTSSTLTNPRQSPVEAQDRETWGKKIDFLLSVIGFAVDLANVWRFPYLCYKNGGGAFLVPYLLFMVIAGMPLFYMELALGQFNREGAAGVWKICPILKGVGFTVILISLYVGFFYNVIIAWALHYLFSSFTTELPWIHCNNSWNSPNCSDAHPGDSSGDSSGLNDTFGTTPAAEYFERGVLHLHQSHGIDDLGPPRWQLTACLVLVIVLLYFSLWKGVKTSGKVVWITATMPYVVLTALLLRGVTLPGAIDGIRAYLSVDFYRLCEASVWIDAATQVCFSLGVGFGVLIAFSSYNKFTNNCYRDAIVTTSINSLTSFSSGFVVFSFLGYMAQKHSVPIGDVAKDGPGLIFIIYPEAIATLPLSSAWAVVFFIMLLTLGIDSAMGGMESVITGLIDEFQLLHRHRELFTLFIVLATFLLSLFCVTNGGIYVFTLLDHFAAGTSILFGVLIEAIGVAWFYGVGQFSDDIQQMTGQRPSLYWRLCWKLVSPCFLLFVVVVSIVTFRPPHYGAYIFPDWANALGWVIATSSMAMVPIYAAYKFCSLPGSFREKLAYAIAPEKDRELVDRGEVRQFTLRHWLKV
Measurement Label: pKi
Lab note: report pKi as minus log10 of the concentration in molar units, number only.

Data request: Recall the recorded pKi for `CN(C)C(=O)c1sc2nc(N3CCC(S(C)(=O)=O)CC3)cc(C(F)(F)F)c2c1N` with Sodium-dependent dopamine transporter (Homo sapiens, UniProt Q01959) and state it.
Data returned: 5.37
